The reader will find reported cell viability values listed item by item below.
# Tested on: MOLM14;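 also: after 48 h exposure read by CellTiter-Glo luminescence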
# protocolText: cell viability relative to vehicle control; higher = less cytotoxic
# conditions: 10 µM; SRSF2 genotype: SRSF2 wt/wt
readoutKind: cell viability (%)

{"sampleSmiles": "OC[C@H]1O[C@@H](n2cnc3c(O)nc(O)nc32)[C@H](O)[C@@H]1O", "readoutKind": "cell viability", "uom": "%", "observed": 98.5}
{"sampleSmiles": "CNCCN(C)Cc1c[nH]nc1-c1ccc(O[C@H]2C[C@H](OCCC3CCOCC3)C2)cc1", "readoutKind": "cell viability", "uom": "%", "observed": 96.4}
{"sampleSmiles": "N#CCC1(n2cc(-c3ncnc4[nH]ccc34)cn2)CN(C2CCN(C(=O)c3ccnc(C(F)(F)F)c3F)CC2)C1", "readoutKind": "cell viability", "uom": "%", "observed": 102}
{"sampleSmiles": "CCS(=O)(=O)c1cccc(-c2cc(C(=O)NC3CCN(C)CC3)c(C)c3[nH]c4ncc(C)cc4c23)c1", "readoutKind": "cell viability", "uom": "%", "observed": 2.2}
